Catalogue of molecules with associated General MDCK-MDR1: % Recov A-B
# Tested on: MDR1-MDCK cell monolayers
# assayComment: MDCK-MDR1 permeability assay, blood-brain-barrier (BBB) penetration potential
# Type: in vitro ADME
# condition: A-B direction
Answers without a unit are incomplete; give the number and then its unit.

Reference set (5 entries):
Input: Observed General MDCK-MDR1: % Recov A-B on MDR1-MDCK cell monolayers for CN(c1ccc(-c2ccc(-n3ccnc3)cc2O)nn1)C1CC2CCC(C)(C1)N2 (single isomer, unassigned; ent2) [304-Ent2] , please.
Output: 87%

Input: Observed General MDCK-MDR1: % Recov A-B on MDR1-MDCK cell monolayers for C[C@]12CC[C@H](C[C@@H](Oc3ccc(-c4ccc(-c5cn[nH]c5)cc4O)nn3)C1)N2 (single isomer, unassigned; ent1) [309-Ent1] , please.
Output: 93%

Input: Observed General MDCK-MDR1: % Recov A-B on MDR1-MDCK cell monolayers for COCC12CCC(CC(N(C)c3ccc(-c4cc(F)c(-n5ccnc5)cc4O)nn3)C1)N2 (single isomer, unassigned; ent2) [315-Ent2] , please.
Output: 104%

Input: Observed General MDCK-MDR1: % Recov A-B on MDR1-MDCK cell monolayers for COc1cc(-c2ccc(-c3ccc(N(C)C4CC5CCC(C)(C4)N5)nn3)c(O)c2)cnn1 (single isomer, unassigned; ent2) [310-Ent2] , please.
Output: 89%

Input: Observed General MDCK-MDR1: % Recov A-B on MDR1-MDCK cell monolayers for COCC12CCCC(CC(Oc3ccc(-c4ccc(-c5cnn(C)c5)cc4O)nn3)C1)N2 (single isomer, unassigned; ent1) [316-Ent1] , please.
Output: 84%

Next molecule, General MDCK-MDR1: % Recov A-B to be filled in.
Input: Observed General MDCK-MDR1: % Recov A-B on MDR1-MDCK cell monolayers for COCC12CCC(CC(N(C)c3ccc(-c4cc(F)c(-n5ccnc5)cc4O)nn3)C1)N2 (single isomer, unassigned; ent1) [315-Ent1] , please.
Output: 109%

* * *

Catalogue of molecules with associated pIC50
# System: SMN FL and SMN Δ7 mRNA, spinal muscular atrophy (SMA) patient fibroblasts (GM03813)
# assayComment: Quantitative splicing assay (SMN)
# Assay type: cell-based, human
# condition: 24 h, average, read-out: SMN2 Potency - Splicing: Splicing D7 IC50 (average)
# Procedure: Spinal muscular atrophy (SMA) patient fibroblasts (GM03813, Coriell) are plated in 96-well plates at 50,000 cells/well. […] Treated cells are lysed and cDNA synthesized using the Fast Advanced Cells-to-Ct kit (Thermofisher A35378) according to the manufacturer's instructions. 2 μL of each cDNA are used in qPCR reactions. […] Reactions are run in a Quant Studio 6 qPCR instrument with default settings.
pIC50: −log10 of the molar value.

Reference set (5 entries):
Input: Observed pIC50 on SMN FL and SMN Δ7 mRNA, spinal muscular atrophy (SMA) patient fibroblasts (GM03813) for C[C@]12CC[C@H](C[C@@H](Oc3ccc(-c4ccc(-n5ccnc5)cc4O)nn3)C1)N2 (single isomer, unassigned; ent1) , please.
Output: 7.30 to 7.80

Input: Observed pIC50 on SMN FL and SMN Δ7 mRNA, spinal muscular atrophy (SMA) patient fibroblasts (GM03813) for COCC12CCC(CC(N(C)c3ccc(-c4cc(F)c(-n5ccnc5)cc4O)nn3)C1)N2 (single isomer, unassigned; ent1) , please.
Output: 7.82 to 11.00

Input: Observed pIC50 on SMN FL and SMN Δ7 mRNA, spinal muscular atrophy (SMA) patient fibroblasts (GM03813) for COCC12CCCC(CC(Oc3ccc(-c4ccc(-c5cnn(C)c5)cc4O)nn3)C1)N2 (single isomer, unassigned; ent1) [316-Ent1] , please.
Output: 7.30 to 7.80

Input: Observed pIC50 on SMN FL and SMN Δ7 mRNA, spinal muscular atrophy (SMA) patient fibroblasts (GM03813) for COCC12CCCC(CC(Oc3ccc(-c4ccc(-c5cnn(C)c5)cc4O)nn3)C1)N2 (single isomer, unassigned; ent2) [316-Ent2] , please.
Output: 7.30 to 7.80

Input: Observed pIC50 on SMN FL and SMN Δ7 mRNA, spinal muscular atrophy (SMA) patient fibroblasts (GM03813) for CC12CCC(CC(Oc3ccc(-c4ccc(-n5ccnc5)cc4O)nn3)C1)N2 (single isomer, unassigned; ent2) , please.
Output: 7.30 to 7.80

***
Input: Observed pIC50 on SMN FL and SMN Δ7 mRNA, spinal muscular atrophy (SMA) patient fibroblasts (GM03813) for C[C@]12CC[C@H](C[C@@H](Oc3ccc(-c4ccc(-c5cn[nH]c5)cc4O)nn3)C1)N2 (single isomer, unassigned; ent1) , please.
Output: 7.82 to 11.00

Input: Observed pIC50 on SMN FL and SMN Δ7 mRNA, spinal muscular atrophy (SMA) patient fibroblasts (GM03813) for CN(c1ccc(-c2ccc(-c3cnn(C)c3)cc2O)nn1)C1CC2CCC(C)(N2)C1F (single isomer, unassigned; ent1) , please.
Output: 7.82 to 11.00
